assay: Cmax in Sprague-Dawley rat at 1 mg/kg, iv measured for 24 hrs by LC-MS/MS analysis; type: ADME, organism-based; settings: in vivo
quantity-name: Cmax (ng/mL)
All answers are understood in ng/mL, so give the number only.

INPUT: Report Cmax for COc1ccc(CN2C3CC2CN(c2ccc(-c4cc(N5CCC(N6CCN(CCCC#Cc7cccc8c7CN(C7CCC(=O)NC7=O)C8=O)CC6)CC5)cn5ncc(C#N)c45)cn2)C3)cn1 (stereo unspecified) please.
OUTPUT: 121

* * *

test system: BaF3; experiment: PROTAC activity at CRBN/KIF5B-RET (unknown origin) expressed in mouse BaF3 cells assessed as induction of RET degradation at 10 nM incubated for 24 hrs by immunoblot analysis relative to control; assay type: cell-based
So basically, if Activity comes in under 60% it's t, and if it's 60% or more it's f.

INPUT: Here's an entry: COc1ccc(CN2C3CC2CN(c2ccc(-c4cc(N5CCC(N6CCN(CCCC#Cc7cccc8c7C(=O)N(C7CCC(=O)NC7=O)C8=O)CC6)CC5)cn5ncc(C#N)c45)cn2)C3)cn1 (stereo unspecified) . Is its Activity below 60%?
OUTPUT: f

INPUT: Here's an entry: COc1ccc(CN2C3CC2CN(c2ccc(-c4cc(N5CCN(C6CN(c7ccc8c(c7)C(=O)N(C7CCC(=O)NC7=O)C8=O)C6)CC5)cn5ncc(C#N)c45)cn2)C3)cn1 (stereo unspecified) . Is its Activity below 60%?
OUTPUT: f

INPUT: Here's an entry: COc1ccc(CN2C3CC2CN(c2ccc(-c4cc(N5CCC(N6CCN(C(=O)CNc7ccc8c(c7)C(=O)N(C7CCC(=O)NC7=O)C8=O)CC6)CC5)cn5ncc(C#N)c45)cn2)C3)cn1 (stereo unspecified) . Is its Activity below 60%?
OUTPUT: t

INPUT: Here's an entry: COc1ccc(CN2C3CC2CN(c2ccc(-c4cc(N5CCC(N6CCN(C(=O)CCCNc7cccc8c7C(=O)N(C7CCC(=O)NC7=O)C8=O)CC6)CC5)cn5ncc(C#N)c45)cn2)C3)cn1 (stereo unspecified) . Is its Activity below 60%?
OUTPUT: f

INPUT: Here's an entry: COc1ccc(CN2C3CC2CN(c2ccc(-c4cc(N5CCC(N6CCN(CCCCCC#Cc7cccc8c7CN(C7CCC(=O)NC7=O)C8=O)CC6)CC5)cn5ncc(C#N)c45)cn2)C3)cn1 (stereo unspecified) . Is its Activity below 60%?
OUTPUT: t

INPUT: Here's an entry: COc1ccc(CN2C3CC2CN(c2ccc(-c4cc(N5CCC(N6CCN(C(=O)CCCCCCCNc7ccc8c(c7)C(=O)N(C7CCC(=O)NC7=O)C8=O)CC6)CC5)cn5ncc(C#N)c45)cn2)C3)cn1 (stereo unspecified) . Is its Activity below 60%?
OUTPUT: t

INPUT: Here's an entry: COc1ccc(CN2C3CC2CN(c2ccc(-c4cc(N5CCN(CC6CN(c7ccc8c(c7)C(=O)N(C7CCC(=O)NC7=O)C8=O)C6)CC5)cn5ncc(C#N)c45)cn2)C3)cn1 (stereo unspecified) . Is its Activity below 60%?
OUTPUT: f

INPUT: Here's an entry: COc1ccc(CN2C3CC2CN(c2ccc(-c4cc(N5CCN(C(=O)CNc6cccc7c6C(=O)N(C6CCC(=O)NC6=O)C7=O)CC5)cn5ncc(C#N)c45)cn2)C3)cn1 (stereo unspecified) . Is its Activity below 60%?
OUTPUT: t

INPUT: Here's an entry: COc1ccc(CN2C3CC2CN(c2ccc(-c4cc(N5CCN(C(=O)CCCCCNc6cccc7c6C(=O)N(C6CCC(=O)NC6=O)C7=O)CC5)cn5ncc(C#N)c45)cn2)C3)cn1 (stereo unspecified) . Is its Activity below 60%?
OUTPUT: t

INPUT: Here's an entry: COc1ccc(CN2C3CC2CN(c2ccc(-c4cc(N5CCN(C(=O)CCCCCCCNc6cccc7c6C(=O)N(C6CCC(=O)NC6=O)C7=O)CC5)cn5ncc(C#N)c45)cn2)C3)cn1 (stereo unspecified) . Is its Activity below 60%?
OUTPUT: f

INPUT: Here's an entry: COc1ccc(CN2C3CC2CN(c2ccc(-c4cc(N5CCN(C(=O)CCCCCCCNc6ccc7c(c6)C(=O)N(C6CCC(=O)NC6=O)C7=O)CC5)cn5ncc(C#N)c45)cn2)C3)cn1 (stereo unspecified) . Is its Activity below 60%?
OUTPUT: t
